Ref: paper PMC3125946

// reported percent monomer (Monomer:Dimer Ratio) per item
Target: the molecule itself
Test: SEC
readout_type: percent monomer (Monomer:Dimer Ratio) (%)

protein	readout_type	readout_value
MjCobY D83G (enzyme, Methanocaldococcus jannaschii, UniProt Q58517 1-196, looked up) MDALIMAGGKGTRMGGVEKPLIKLCGRCLIDYVVSPLLKSKVNNIFIATSPNTPKTKEYINSAYKDYKNIVVIDTSGKGYIEGLNECIGYFSEPFLVVSSDLINLKSKIINSIVDYFYCIKAKTPDVEALAVMIPKEKYPNPSIDFNGLVPAGINVVSPKHGYQKEEIMVIDELIFNINTKDDLKLAEMLLKKDGL	percent monomer (Monomer:Dimer Ratio)	82
MjCobY K19A (enzyme, Methanocaldococcus jannaschii, UniProt Q58517 1-196, looked up) MDALIMAGGKGTRMGGVEAPLIKLCGRCLIDYVVSPLLKSKVNNIFIATSPNTPKTKEYINSAYKDYKNIVVIDTSGKGYIEDLNECIGYFSEPFLVVSSDLINLKSKIINSIVDYFYCIKAKTPDVEALAVMIPKEKYPNPSIDFNGLVPAGINVVSPKHGYQKEEIMVIDELIFNINTKDDLKLAEMLLKKDGL	percent monomer (Monomer:Dimer Ratio)	36
MjCobY T53S (enzyme, Methanocaldococcus jannaschii, UniProt Q58517 1-196, looked up) MDALIMAGGKGTRMGGVEKPLIKLCGRCLIDYVVSPLLKSKVNNIFIATSPNSPKTKEYINSAYKDYKNIVVIDTSGKGYIEDLNECIGYFSEPFLVVSSDLINLKSKIINSIVDYFYCIKAKTPDVEALAVMIPKEKYPNPSIDFNGLVPAGINVVSPKHGYQKEEIMVIDELIFNINTKDDLKLAEMLLKKDGL	percent monomer (Monomer:Dimer Ratio)	76
MjCobY D101G (enzyme, Methanocaldococcus jannaschii, UniProt Q58517 1-196, looked up) MDALIMAGGKGTRMGGVEKPLIKLCGRCLIDYVVSPLLKSKVNNIFIATSPNTPKTKEYINSAYKDYKNIVVIDTSGKGYIEDLNECIGYFSEPFLVVSSGLINLKSKIINSIVDYFYCIKAKTPDVEALAVMIPKEKYPNPSIDFNGLVPAGINVVSPKHGYQKEEIMVIDELIFNINTKDDLKLAEMLLKKDGL	percent monomer (Monomer:Dimer Ratio)	34
MjCobY R13A (enzyme, Methanocaldococcus jannaschii, UniProt Q58517 1-196, looked up) MDALIMAGGKGTAMGGVEKPLIKLCGRCLIDYVVSPLLKSKVNNIFIATSPNTPKTKEYINSAYKDYKNIVVIDTSGKGYIEDLNECIGYFSEPFLVVSSDLINLKSKIINSIVDYFYCIKAKTPDVEALAVMIPKEKYPNPSIDFNGLVPAGINVVSPKHGYQKEEIMVIDELIFNINTKDDLKLAEMLLKKDGL	percent monomer (Monomer:Dimer Ratio)	14
MjCobY^G8D (enzyme, Methanocaldococcus jannaschii, UniProt Q58517 1-196, looked up) MDALIMADGKGTRMGGVEKPLIKLCGRCLIDYVVSPLLKSKVNNIFIATSPNTPKTKEYINSAYKDYKNIVVIDTSGKGYIEDLNECIGYFSEPFLVVSSDLINLKSKIINSIVDYFYCIKAKTPDVEALAVMIPKEKYPNPSIDFNGLVPAGINVVSPKHGYQKEEIMVIDELIFNINTKDDLKLAEMLLKKDGL	percent monomer (Monomer:Dimer Ratio)	33
MjCobY^G153D (enzyme, Methanocaldococcus jannaschii) MDALIMAGGKGTRMGGVEKPLIKLCGRCLIDYVVSPLLKSKVNNIFIATSPNTPKTKEYINSAYKDYKNIVVIDTSGKGYIEDLNECIGYFSEPFLVVSSDLINLKSKIINSIVDYFYCIKAKTPDVEALAVMIPKEKYPNPSIDFNGLVPADINVVSPKHGYQKEEIMVIDELIFNINTKDDLKLAEMLLKKDGL	percent monomer (Monomer:Dimer Ratio)	54
MjCobY P20A (enzyme, Methanocaldococcus jannaschii, UniProt Q58517 1-196, looked up) MDALIMAGGKGTRMGGVEKALIKLCGRCLIDYVVSPLLKSKVNNIFIATSPNTPKTKEYINSAYKDYKNIVVIDTSGKGYIEDLNECIGYFSEPFLVVSSDLINLKSKIINSIVDYFYCIKAKTPDVEALAVMIPKEKYPNPSIDFNGLVPAGINVVSPKHGYQKEEIMVIDELIFNINTKDDLKLAEMLLKKDGL	percent monomer (Monomer:Dimer Ratio)	63
MjCobY P54A (enzyme, Methanocaldococcus jannaschii, UniProt Q58517 1-196, looked up) MDALIMAGGKGTRMGGVEKPLIKLCGRCLIDYVVSPLLKSKVNNIFIATSPNTAKTKEYINSAYKDYKNIVVIDTSGKGYIEDLNECIGYFSEPFLVVSSDLINLKSKIINSIVDYFYCIKAKTPDVEALAVMIPKEKYPNPSIDFNGLVPAGINVVSPKHGYQKEEIMVIDELIFNINTKDDLKLAEMLLKKDGL	percent monomer (Monomer:Dimer Ratio)	50
MjCobY E18D (enzyme, Methanocaldococcus jannaschii, UniProt Q58517 1-196, looked up) MDALIMAGGKGTRMGGVDKPLIKLCGRCLIDYVVSPLLKSKVNNIFIATSPNTPKTKEYINSAYKDYKNIVVIDTSGKGYIEDLNECIGYFSEPFLVVSSDLINLKSKIINSIVDYFYCIKAKTPDVEALAVMIPKEKYPNPSIDFNGLVPAGINVVSPKHGYQKEEIMVIDELIFNINTKDDLKLAEMLLKKDGL	percent monomer (Monomer:Dimer Ratio)	40
